# System: cisplatin-sensitive A2780 (Human ovarian carcinoma epithelial tumor)
# ASSAY_DETAILS: Cytotoxic effects on tumor lines (MTS cell viability)
# Assay type: cell-based
# SETTINGS: 24 hours treatment, MTS 48 hours after washing, read-out: concentration necessary to obtain 50% cell death (IC50)
RECORDED_METRIC: pIC50
In textbook form, pIC50 equals minus log to base ten of the concentration in mol/L.

Task: Reported pIC50, compound N.N.[Cl][Pt][Cl] [free cisplatin, cisplatin] : ____
Result: 5.33

----------
# System: SKOV3 (cisplatin-resistant)
# ASSAY_DETAILS: Cytotoxic effects on tumor lines IGROV-1 and SKOV3 (MTS cell viability)
# Assay type: cell-based
# SETTINGS: 24 hours treatment, MTS 48 hours after washing, read-out: concentration necessary to obtain 50% cell death (IC50)
RECORDED_METRIC: pIC50
In textbook form, pIC50 equals minus log to base ten of the concentration in mol/L.

Task: What is its pIC50 for SKOV3 (cisplatin-resistant)? Entry: N.N.[Cl][Pt][Cl] [free cisplatin, cisplatin]
Result: 5.37
